Value source: patent US20250332112A1

// reported Final Product % EE for each item listed
Experiment: Particle characteristics of LNPs containing luciferase mRNA and novel ionizable lipids
Type: physicochemical
Conditions: Table 1; luciferase mRNA LNP 1.6:54.6:32.8:10.9
I only need the number, in %, no unit after it.

Use these answered entries as a reference point.
CCCCCCCCCC(CC(=O)OCC(CCCCCC)CCCCCCCC)N(CCCN(C)C)S(=O)(=O)CCCCCCCC (stereo not drawn) :: 96
CCCCC/C=C\CCCOC(=O)CC(CCCCCCCCC)N(CCCN(C)C)S(=O)(=O)CCCCCCCCCCC (stereo not drawn) :: 95
CCCCCCCCCC(CC(=O)OCC(CCCCCC)CCCCCCCC)N(CCCN(C)C)S(=O)(=O)CCCC (stereo not drawn) :: 96
CCCCCCCCCCCS(=O)(=O)N(CCCN(C)C)C(CCCCCCCCC)CC(=O)OCC(CCCCCC)CCCCCCCC (stereo not drawn) :: 94
CCCCCCCCCCOC(=O)CC(CCCCCCCCC)N(CCCN(C)C)S(=O)(=O)CC(CCCCCC)CCCCCCCC (stereo not drawn) :: 93

Using the record for CCCCC/C=C\CCCC(CCC/C=C\CCCCC)C(CCC/C=C\CCCCC)OC(=O)CCCCN(C)C (stereo not drawn) [Compound 13-B43, reference compound] , state its measured Final Product % EE.
94
